Data provenance: patent US20170152226A1

System: SK-N-SH
Assay: Anti-proliferative activity, cell-titre luminescent viability assay
Assay type: cell-based
Settings: 72 hours; 0.03, 0.3, 3 and 30 μM; linear regression of semi-log plots; read-out: IC50 Neuroblastoma SK-N-SH

compound	IC50 / µM
COc1ccc(CCN2CCN(C(=O)c3ccc(Nc4ccc5c(c4)c(C)c(C)n5CCCN4CCN(C)CC4)cc3)CC2)cc1 [Compound 3536]	2.9

###

Test system: TNF-α
Assay: Inhibition of cytokine release from PBMCs (HTRF)
Format: cell-based
Settings: PBMC; 1 μM; human PBMCs, LPS stimulated
Entries annotated with measured inhibition at 1 µM
observable: inhibition at 1 µM

compound smiles	tested on	test result
COc1ccc2cc(CCN3CCN(C(=O)c4cccc(Cc5ccc6c(c5)c(C)c(C)n6CCCN5CCN(C)CC5)c4)CC3)ccc2c1	TNF-α	-4%
COc1ccc(CCN2CCN(C(=O)c3ccc(Cc4ccc5c(c4)c(C)c(C)n5CCCN4CCN(C)CC4)cc3)CC2)cc1	TNF-α	-10%
Cc1c(C)n(CCCN2CCN(C)CC2)c2ccc(Nc3ccc(C(=O)N4CCN(CCc5cccc(F)c5)CC4)cc3)cc12	TNF-α	5%
Cc1c(C)n(CCCN2CCN(C)CC2)c2ccc(Oc3cccc(C(=O)N4CCN(CCc5ccc(F)cc5)CC4)c3)cc12	TNF-α	68%
